# Tested on: Proteus mirabilis (IFO 3849)
# MEASUREMENT_PROTOCOL: MIC, agar dilution, Proteus mirabilis
# Type: cell-based
# MEASUREMENT_PARAMETERS: Proteus mirabilis, IFO3849, 20 h, read-out: Minimum Inhibitory Concentration (MIC)
Below is a list of entries, each paired with its recorded MIC value.
Respond numerically; units are µg/mL and should not be typed.

Recorded results for 2 molecules are shown here.
MOLECULE | UNIT_SYMBOL | MIC
CC1(C)S[C@@H]2[C@H](NC(=O)[C@H](NC(=O)[C@H]3Cc4ccccc4CN3)c3ccccc3)C(=O)N2[C@H]1C(=O)O [Compound 15] | µg/mL | 25
Cc1ccc(S(=O)(=O)N(C)[C@H](C)C(=O)N[C@@H](C(=O)N[C@@H]2C(=O)N3[C@@H]2SC(C)(C)[C@@H]3C(=O)O)c2ccccc2)cc1 [Compound 17] | µg/mL | 12.5

Then there is this molecule:
Query: Report the value of MIC obtained on Proteus mirabilis (IFO 3849) for Cc1ccc(S(=O)(=O)N(C)C(C)C(=O)N[C@@H](C(=O)N[C@@H]2C(=O)N3[C@@H]2SC(C)(C)[C@@H]3C(=O)O)c2ccccc2)cc1 (stereo partly drawn) [Compound 19] .
Reply: 12.5

====

# System: Staph. aureus (FDA 209P)
# MEASUREMENT_PROTOCOL: MIC, agar dilution, Staph. aureus
# Format: cell-based
# MEASUREMENT_PARAMETERS: Staphylococcus aureus, FDA209P, 20 h, read-out: Minimum Inhibitory Concentration (MIC)
Entry class follows MIC: low class: < 0.6 mg/L; middle class: ≥ 0.6 mg/L and < 1 mg/L; high class: ≥ 1 mg/L

MOLECULE | CLASS_LABEL
CC1(C)S[C@@H]2[C@H](NC(=O)[C@H](NC(=O)[C@H]3CCCCN3)c3ccccc3)C(=O)N2[C@H]1C(=O)O | high class
CC1(C)S[C@@H]2[C@H](NC(=O)[C@H](NC(=O)C3CCCCN3C(N)=O)c3ccccc3)C(=O)N2[C@H]1C(=O)O (some centres unmarked) | low class
CC1(C)S[C@@H]2[C@H](NC(=O)[C@H](NC(=O)[C@H]3CCCCN3C(=O)OCc3ccccc3)c3ccccc3)C(=O)N2[C@H]1C(=O)O | middle class
Cc1ccc(S(=O)(=O)N(C)[C@H](C)C(=O)N[C@@H](C(=O)N[C@@H]2C(=O)N3[C@@H]2SC(C)(C)[C@@H]3C(=O)O)c2ccccc2)cc1 | low class
CC1(C)S[C@@H]2[C@H](NC(=O)[C@H](NC(=O)[C@@H]3CCCN3)c3ccc(O)cc3)C(=O)N2[C@H]1C(=O)O | high class
CN[C@H](CC(C)C)C(=O)N[C@@H](C(=O)N[C@@H]1C(=O)N2[C@@H]1SC(C)(C)[C@@H]2C(=O)O)c1ccccc1 | middle class

Query: Sort into band: CC1(C)S[C@@H]2[C@H](NC(=O)[C@H](NC(=O)[C@H]3CCN3)c3ccccc3)C(=O)N2[C@H]1C(=O)O
Reply: high class

Query: Sort into band: CC1(C)S[C@@H]2[C@H](NC(=O)[C@H](NC(=O)[C@H]3CCCN3C(=O)OCc3ccccc3)c3ccccc3)C(=O)N2[C@H]1C(=O)O
Reply: high class

Query: Sort into band: CC1(C)S[C@@H]2[C@H](NC(=O)[C@H](NC(=O)[C@@H]3CCCN3C(=O)OCc3ccccc3)c3ccc(O)cc3)C(=O)N2[C@H]1C(=O)O
Reply: high class

Query: Sort into band: CC1(C)S[C@@H]2[C@H](NC(=O)[C@H](NC(=O)C3Cc4ccccc4CN3)c3ccccc3)C(=O)N2[C@H]1C(=O)O (some centres unmarked)
Reply: low class

Query: Sort into band: Cc1ccc(S(=O)(=O)N(C)[C@@H](C(=O)N[C@@H](C(=O)N[C@@H]2C(=O)N3[C@@H]2SC(C)(C)[C@@H]3C(=O)O)c2ccccc2)c2ccccc2)cc1
Reply: middle class

Query: Sort into band: CC1(C)S[C@@H]2[C@H](NC(=O)[C@H](NC(=O)[C@H]3CCCN3C(=O)OCc3ccccc3)c3ccc(O)cc3)C(=O)N2[C@H]1C(=O)O
Reply: high class

Query: Sort into band: CC1(C)S[C@@H]2[C@H](NC(=O)[C@H](NC(=O)[C@H]3CCCCN3)c3ccc(O)cc3)C(=O)N2[C@H]1C(=O)O
Reply: high class

Query: Sort into band: CN[C@H](C)C(=O)N[C@@H](C(=O)N[C@@H]1C(=O)N2[C@@H]1SC(C)(C)[C@@H]2C(=O)O)c1ccc(O)cc1
Reply: high class

Query: Sort into band: Cc1ccc(S(=O)(=O)N(C)CC(=O)N[C@@H](C(=O)N[C@@H]2C(=O)N3[C@@H]2SC(C)(C)[C@@H]3C(=O)O)c2ccccc2)cc1
Reply: low class

Query: Sort into band: CC(C)C[C@H](C(=O)N[C@@H](C(=O)N[C@@H]1C(=O)N2[C@@H]1SC(C)(C)[C@@H]2C(=O)O)c1ccccc1)N(C)C(=O)OCc1ccccc1
Reply: middle class

Query: Sort into band: CN[C@H](C)C(=O)N[C@@H](C(=O)N[C@@H]1C(=O)N2[C@@H]1SC(C)(C)[C@@H]2C(=O)O)c1ccccc1
Reply: high class

Query: Sort into band: CC1(C)S[C@@H]2[C@H](NC(=O)[C@H](NC(=O)[C@H]3CCCCN3C(=O)OCc3ccccc3)c3ccc(O)cc3)C(=O)N2[C@H]1C(=O)O
Reply: high class

====

# System: E. coli (NIHJ)
# MEASUREMENT_PROTOCOL: MIC, agar dilution, E. coli
# Assay type: cell-based
# MEASUREMENT_PARAMETERS: Escherichia coli, 20 h, read-out: Minimum Inhibitory Concentration (MIC)
REPORTED_PROPERTY: MIC
Answer format: number, then unit.

COMPOUND | EXPERIMENTAL_RESULT
CC1(C)S[C@@H]2[C@H](NC(=O)[C@H](NC(=O)[C@@H]3CCCN3)c3ccc(O)cc3)C(=O)N2[C@H]1C(=O)O [Compound 4] | 25 µg/mL
Cc1ccc(S(=O)(=O)N(C)CC(=O)N[C@@H](C(=O)N[C@@H]2C(=O)N3[C@@H]2SC(C)(C)[C@@H]3C(=O)O)c2ccccc2)cc1 [Compound 22] | 25 µg/mL
Cc1ccc(S(=O)(=O)N(C)C(C)C(=O)N[C@@H](C(=O)N[C@@H]2C(=O)N3[C@@H]2SC(C)(C)[C@@H]3C(=O)O)c2ccccc2)cc1 (stereo partly shown) [Compound 19] | 25 µg/mL
CN(C(=O)OCc1ccccc1)[C@@H](C(=O)N[C@@H](C(=O)N[C@@H]1C(=O)N2[C@@H]1SC(C)(C)[C@@H]2C(=O)O)c1ccccc1)c1ccccc1 [Compound 25] | 50 µg/mL
CC1(C)S[C@@H]2[C@H](NC(=O)[C@H](NC(=O)[C@H]3CCCN3)c3ccccc3)C(=O)N2[C@H]1C(=O)O [Compound 1] | 6.2 µg/mL

Query: For the compound Cc1ccc(S(=O)(=O)N(C)[C@H](C)C(=O)N[C@@H](C(=O)N[C@@H]2C(=O)N3[C@@H]2SC(C)(C)[C@@H]3C(=O)O)c2ccccc2)cc1 [Compound 17] , report MIC.
Reply: 25 µg/mL

Query: For the compound CN[C@H](C)C(=O)N[C@@H](C(=O)N[C@@H]1C(=O)N2[C@@H]1SC(C)(C)[C@@H]2C(=O)O)c1ccccc1 [Compound 20] , report MIC.
Reply: 25 µg/mL

====

Below is a list of entries, each paired with its recorded MIC value.
# Tested on: Staph. aureus (FDA 209P)
# MEASUREMENT_PROTOCOL: MIC, agar dilution, Staph. aureus
# Format: cell-based
# MEASUREMENT_PARAMETERS: Staphylococcus aureus, FDA209P, 20 h, read-out: Minimum Inhibitory Concentration (MIC)

MOLECULE | EXPERIMENTAL_RESULT
CC1(C)S[C@@H]2[C@H](NC(=O)[C@H](NC(=O)[C@H]3CCN3)c3ccc(O)cc3)C(=O)N2[C@H]1C(=O)O [Compound 29] | 5 µg/mL
Cc1ccc(S(=O)(=O)N(C)C(C)C(=O)N[C@@H](C(=O)N[C@@H]2C(=O)N3[C@@H]2SC(C)(C)[C@@H]3C(=O)O)c2ccccc2)cc1 (some centres unmarked) [Compound 19] | 0.15 µg/mL
CC1(C)S[C@@H]2[C@H](NC(=O)[C@H](NC(=O)C3CCCCN3)c3ccccc3)C(=O)N2[C@H]1C(=O)O (some centres unmarked) [Compound 13] | 3.75 µg/mL
CC1(C)S[C@@H]2[C@H](NC(=O)[C@H](NC(=O)C3NCc4ccccc43)c3ccccc3)C(=O)N2[C@H]1C(=O)O (some centres unmarked) [Compound 14] | 0.31 µg/mL
CC1(C)S[C@@H]2[C@H](NC(=O)[C@H](NC(=O)[C@H]3CCCCN3C(N)=O)c3ccccc3)C(=O)N2[C@H]1C(=O)O [Compound 10] | 0.31 µg/mL

Query: For the molecule CN(C(=O)OCc1ccccc1)[C@@H](C(=O)N[C@@H](C(=O)N[C@@H]1C(=O)N2[C@@H]1SC(C)(C)[C@@H]2C(=O)O)c1ccccc1)c1ccccc1 [Compound 25] , report MIC.
Reply: 3.62 µg/mL

Query: For the molecule Cc1ccc(S(=O)(=O)N(C)[C@H](CC(C)C)C(=O)N[C@@H](C(=O)N[C@@H]2C(=O)N3[C@@H]2SC(C)(C)[C@@H]3C(=O)O)c2ccccc2)cc1 [Compound 23] , report MIC.
Reply: 0.62 µg/mL

Query: For the molecule CC1(C)S[C@@H]2[C@H](NC(=O)[C@H](NC(=O)[C@H]3CCCN3)c3ccccc3)C(=O)N2[C@H]1C(=O)O [Compound 1] , report MIC.
Reply: 0.45 µg/mL

Hello, the source for this data is patent US4220587A, in case you need it.
